Each item that follows carries a reported Kd.
Molecular target: T1, Human CD24 (human, UniProt P25063 27-59, limits assumed)
T1 chain (looked up): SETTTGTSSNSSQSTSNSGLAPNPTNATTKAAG
Assay: affinity ranking; antibody as ligand, Human CD24 as analyte
Reply with just the number (in nM).

Example entries begin here.
{"BINDER": "VH4 + VL2 (humanized 4451) (antibody, V domains shown, IgG expressed in HEK293) VH: QVQLVQSGAEVKKPGASVKVSCKASGYDFTGYHMNWVKQAPGQGLEWIGEINPITSDKTFNQKFKSRATMTVDRSISTAYMELSRLRSDDTAVYYCARRDYGTSLDYWGQGTTVTVSS VL: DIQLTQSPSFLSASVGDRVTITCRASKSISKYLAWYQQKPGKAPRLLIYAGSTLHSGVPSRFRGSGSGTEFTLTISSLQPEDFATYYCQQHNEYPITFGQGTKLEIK", "Kd / nM": 9}
{"BINDER": "VH2 + VL2 (humanized 4451) (antibody, V domains shown, IgG expressed in HEK293) VH: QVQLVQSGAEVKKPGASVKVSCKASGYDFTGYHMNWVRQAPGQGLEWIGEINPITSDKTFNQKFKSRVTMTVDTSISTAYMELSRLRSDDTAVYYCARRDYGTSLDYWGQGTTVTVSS VL: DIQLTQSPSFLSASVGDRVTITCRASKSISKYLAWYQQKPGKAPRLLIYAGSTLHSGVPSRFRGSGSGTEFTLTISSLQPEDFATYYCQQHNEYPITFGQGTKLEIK", "Kd / nM": 22}
{"BINDER": "VH2 + VL4 (humanized 4451) (antibody, V domains shown, IgG expressed in HEK293) VH: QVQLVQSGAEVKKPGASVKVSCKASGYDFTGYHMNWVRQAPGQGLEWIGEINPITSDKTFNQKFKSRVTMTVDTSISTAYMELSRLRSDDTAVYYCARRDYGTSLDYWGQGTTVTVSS VL: DIQLTQSPSFLSASVGDRVTIYCRASKSISKYLAWYQQKPGKAPRLLIYAGSTLHSGIPSRFRGSGSGTEFTLTISSLQPEDFATYYCQQHNEYPITFGQGTKLEIK", "Kd / nM": 19.7}
{"BINDER": "VH4 + VL4 (humanized 4451) (antibody, V domains shown, IgG expressed in HEK293) VH: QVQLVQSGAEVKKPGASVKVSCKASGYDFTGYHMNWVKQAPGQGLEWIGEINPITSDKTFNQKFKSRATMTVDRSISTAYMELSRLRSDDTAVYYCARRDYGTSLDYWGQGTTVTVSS VL: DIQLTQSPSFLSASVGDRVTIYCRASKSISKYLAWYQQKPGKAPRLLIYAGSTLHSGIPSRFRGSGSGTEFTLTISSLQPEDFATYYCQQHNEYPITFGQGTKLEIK", "Kd / nM": 7.94}

Consider now this further binder.
Query (binder): VH3 + VL2 (humanized 4451) (antibody, V domains shown, IgG expressed in HEK293) VH: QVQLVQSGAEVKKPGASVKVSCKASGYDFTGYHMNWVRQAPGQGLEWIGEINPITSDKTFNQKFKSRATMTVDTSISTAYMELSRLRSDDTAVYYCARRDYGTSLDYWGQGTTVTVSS VL: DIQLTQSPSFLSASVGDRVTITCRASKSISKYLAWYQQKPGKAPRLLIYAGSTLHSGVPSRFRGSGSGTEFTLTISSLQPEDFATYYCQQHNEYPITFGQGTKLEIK ; field requested: Kd
23.7
